target: S. aureus SPase (Staphylococcus aureus); assay: biochemical
Sequence (P0A070 whole entry): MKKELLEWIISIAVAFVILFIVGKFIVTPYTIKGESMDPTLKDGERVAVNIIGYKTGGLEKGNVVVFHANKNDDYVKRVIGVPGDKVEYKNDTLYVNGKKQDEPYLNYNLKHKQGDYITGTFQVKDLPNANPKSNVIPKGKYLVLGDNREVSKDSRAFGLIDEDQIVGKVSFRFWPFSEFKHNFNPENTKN
Square brackets hold non-standard residues; d marks the D form. Peptide text beside a SMILES is read from it. * marks the point of attachment. ξ: configuration not given here. Biphenylcarbonyl(4'-Bu) = CCCCc1ccc(-c2ccc(C(=O)*)cc2)cc1; Benzoyl(4-hexyl) = CCCCCCc1ccc(C(=O)*)cc1; NMeThr(3ξ) = CN[C@H](C(=O)O)C(C)O; boroAla = C[C@H](N*)B(O)O; Dap = NC[C@H](N)C(=O)O; boroGly = OB(O)CN*
MEASURED PROPERTY: pIC50
Keep in mind that pIC50 stands for -log10 of concentration in molar terms.

I'd like to know its pIC50. The compound in question is CCCCCCc1ccc(C(=O)N[C@H](CO)C(=O)N[C@H](C)C(=O)NCC(=O)N(C)[C@H](C(=O)N[C@@H](C)C(=O)N[C@@H](CC(N)=O)C(=O)NCB(O)O)C(C)O)cc1 (stereo partly shown) [Compound 124] ({Benzoyl(4-hexyl)}-[dS][dA]G[NMeThr(3ξ)]AN-boroGly)
7.08

Query CCCCc1ccc(-c2ccc(C(=O)N[C@@H](CCN)C(=O)N[C@H](C(=O)N[C@@H](C)C(=O)N[C@@H](CCCCN)C(=O)N[C@@H](C)B3OC4C[C@@H]5C[C@@H](C5(C)C)[C@]4(C)O3)[C@@H](C)O)nc2)cc1 (stereo partly shown) next
6.66

Query CCCCc1ccc(-c2ccc(C(=O)N[C@H]3CN[C@H](C(=O)N[C@H](C(=O)N[C@@H](C)C(=O)N[C@@H](CCCCN)C(=O)N[C@@H](C)B4OC5C[C@@H]6C[C@@H](C6(C)C)[C@]5(C)O4)[C@@H](C)O)C3)cc2)cc1 (stereo partly shown) next
6.47

Query CCCCc1ccc(-c2ccc(C(=O)N[C@@H](CN)C(=O)N[C@H](C(=O)N[C@@H](C)C(=O)N[C@@H](CCCCN)C(=O)N[C@@H](C)B(O)O)[C@@H](C)O)cc2)cc1 [Compound 162] ({Biphenylcarbonyl(4'-Bu)}-[Dap]TAK-boroAla) next
6.70

* * *

What pIC50 was measured for each of the following?
target: UniProt:P0A070; experiment: biochemical
Square brackets hold non-standard residues; d marks the D form. Peptide text beside a SMILES is read from it. * marks the point of attachment. boroAla((+)-pinanediol) = C[C@H](N*)B1O[C@@H]2C[C@@H]3C[C@@H](C3(C)C)[C@]2(C)O1; Biphenylcarbonyl(4'-Bu) = CCCCc1ccc(-c2ccc(C(=O)*)cc2)cc1; X1 = C[C@H](N*)B1OC2C[C@@H]3C[C@@H](C3(C)C)[C@]2(C)O1; Benzoyl(4-(4-Cl-Ph)) = O=C(c1ccc(-c2ccc(Cl)cc2)cc1)*; Benzoyl(4-octyl) = CCCCCCCCc1ccc(C(=O)*)cc1; boroAla = C[C@H](N*)B(O)O; Dab = NCC[C@H](N)C(=O)O; Dap = NC[C@H](N)C(=O)O; βAla = NCCC(=O)O
Keep in mind that pIC50 stands for -log10 of concentration in molar terms.

I'd like to know its pIC50. The molecule in question is CCCCCCCCc1ccc(C(=O)N[C@@H](CCN)C(=O)N[C@H](C(=O)N[C@@H](C)C(=O)N[C@@H](CCCCN)C(=O)N[C@@H](C)B2OC3C[C@@H]4C[C@@H](C4(C)C)[C@]3(C)O2)[C@@H](C)O)cc1 (some centres unmarked) [Compound 232] ({Benzoyl(4-octyl)}-[Dab]TAK-X1)
6.85

Query C[C@H](NC(=O)[C@H](CCCCN)NC(=O)[C@H](C)NC(=O)[C@H](CCCCN)NC(=O)[C@H](CN)NC(=O)c1ccc(-c2ccc(Cl)cc2)cc1)B(O)O [Compound 180] ({Benzoyl(4-(4-Cl-Ph))}-[Dap]KAK-boroAla) next
6.55

Query CCCCc1ccc(-c2ccc(C(=O)NCCC(=O)N[C@@H](CCCCN)C(=O)N[C@@H](CCCCN)C(=O)N[C@@H](C)C(=O)N[C@@H](CC(N)=O)C(=O)N[C@@H](C)B3OC4C[C@@H]5C[C@@H](C5(C)C)[C@]4(C)O3)cc2)cc1 (some centres unmarked) [Compound 197] ({Biphenylcarbonyl(4'-Bu)-βAla}-KKAN-X1) next
8.21

Query CCCCc1ccc(-c2ccc(C(=O)N[C@@H](CN)C(=O)N[C@@H](CCC(=O)N[C@H](C)C(=O)O)C(=O)N[C@@H](C)C(=O)N[C@@H](CCCCN)C(=O)N[C@@H](C)B3O[C@@H]4C[C@@H]5C[C@@H](C5(C)C)[C@]4(C)O3)cc2)cc1 [Compound 260] ({Biphenylcarbonyl(4'-Bu)}-[Dap]E(dA)AK-{boroAla((+)-pinanediol)}) next
7.08

Query `CCCCc1ccc(-c2ccc(CNCCC(=O)N[C@H](C(=O)N[C@@H](C)C(=O)N[C@@H](CCCCN)C(=O)N[C@@H](C)B3O[C@@H]4C[C@@H]5C[C@@H](C5(C)C)[C@]4(C)O3)[C@@H](C)O)cc2)cc1` next
6.92

* * *

target: E. coli SPase (Escherichia coli); assay: Biochemical SPase activity assay (fluorogenic peptide substrate), E. coli enzyme
Square brackets hold non-standard residues; d marks the D form. Peptide text beside a SMILES is read from it. * marks the point of attachment. boroAla((+)-pinanediol) = C[C@H](N*)B1O[C@@H]2C[C@@H]3C[C@@H](C3(C)C)[C@]2(C)O1; Biphenylcarbonyl(4'-Bu) = CCCCc1ccc(-c2ccc(C(=O)*)cc2)cc1; X1 = C[C@H](N*)B1OC2C[C@@H]3C[C@@H](C3(C)C)[C@]2(C)O1; Benzoyl(4-(4-Cl-Ph)) = O=C(c1ccc(-c2ccc(Cl)cc2)cc1)*; Pro(4S-NH2) = N[C@@H]1CN[C@H](C(=O)O)C1; Pro(4R-NH2) = N[C@H]1CN[C@H](C(=O)O)C1; boroAla = C[C@H](N*)B(O)O; Dab = NCC[C@H](N)C(=O)O; Abu = CC[C@H](N)C(=O)O; βAla = NCCC(=O)O
MEASURED PROPERTY: IC50 (nM)
Expressed in nM, but write only the number.

I'd like to know its IC50. The compound in question is CC(C)C[C@H](NC(=O)[C@H](C)NC(=O)[C@H](CCCCN)NC(=O)[C@H](CCCCN)NC(=O)c1ccc(-c2ccc(Cl)cc2)cc1)C(=O)N[C@@H](C)B1OC2C[C@@H]3C[C@@H](C3(C)C)[C@]2(C)O1 (stereo partly shown) [Compound 145] ({Benzoyl(4-(4-Cl-Ph))}-KKAL-X1)
39

Query CCCCc1ccc(-c2ccc(C(=O)N[C@@H](CCCCN)C(=O)N[C@@H](CCC(=O)O)C(=O)N[C@@H](C)C(=O)N[C@@H](CCCCN)C(=O)N[C@@H](C)B3O[C@@H]4C[C@@H]5C[C@@H](C5(C)C)[C@]4(C)O3)cc2)cc1 [Compound 151] ({Biphenylcarbonyl(4'-Bu)}-KEAK-{boroAla((+)-pinanediol)}) next
8.8

Query CCCCc1ccc(-c2ccc(C(=O)N[C@@H](CCCCN)C(=O)N[C@H](C(=O)N[C@@H](CC)C(=O)N[C@@H](CC(N)=O)C(=O)N[C@@H](C)B3O[C@@H]4C[C@@H]5C[C@@H](C5(C)C)[C@]4(C)O3)[C@@H](C)O)cc2)cc1 [Compound 144] ({Biphenylcarbonyl(4'-Bu)}-KT[Abu]N-{boroAla((+)-pinanediol)}) next
18

Query CCCCc1ccc(-c2ccc(C(=O)N[C@@H](CCCCN)C(=O)N[C@H](C(=O)N[C@@H](C)C(=O)N[C@@H](CCN)C(=O)N[C@@H](C)B3O[C@@H]4C[C@@H]5C[C@@H](C5(C)C)[C@]4(C)O3)[C@@H](C)O)cc2)cc1 [Compound 140] ({Biphenylcarbonyl(4'-Bu)}-KTA[Dab]-{boroAla((+)-pinanediol)}) next
50

Query CCCCc1ccc(-c2ccc(C(=O)N[C@@H](CCCCN)C(=O)N3C[C@H](N)C[C@H]3C(=O)N[C@@H](C)C(=O)N[C@@H](CC(C)C)C(=O)N[C@@H](C)B(O)O)cc2)cc1 [Compound 152] ({Biphenylcarbonyl(4'-Bu)}-K[Pro(4R-NH2)]AL-boroAla) next
25

Query CCCCCCCCCC(=O)N[C@@H](CC(C)C)C(=O)N[C@H](C(=O)N1CCC[C@@H]1C(=O)N[C@H](C(=O)N[C@@H](C)C(=O)N[C@@H](Cc1ccc(O)cc1)C(=O)NC(C)C(=O)C(=O)NC)C(C)O)C(C)O (mixture of isomers) [Compound 111] next
4900

Query CCCCc1ccc(-c2ccc(C(=O)NCCC(=O)N3C[C@@H](N)C[C@H]3C(=O)N[C@H](C(=O)N[C@@H](C)C(=O)N[C@@H](CC(N)=O)C(=O)N[C@@H](C)B3OC4C[C@@H]5C[C@@H](C5(C)C)[C@]4(C)O3)[C@@H](C)O)cc2)cc1 (stereo partly drawn) [Compound 213] ({Biphenylcarbonyl(4'-Bu)-βAla}-[Pro(4S-NH2)]TAN-X1) next
6.8

Where do these numbers come from? They come from patent US9708368B2.
